- Test system: Thrips
- cond: 48 h, 1 mL or g/L
readout.kind: Total No. of dead insect at 48 Hrs.
Give the value as a plain number.

**Query** I am curious: what Total No. of dead insect at 48 Hrs. value has been reported for C=CCc1ccc(OC)c(O)c1 [Chavibetol] ?
**Result** 5.25

**Query** I am curious: what Total No. of dead insect at 48 Hrs. value has been reported for CCCCC[C@H](O)CC(=O)CCc1ccc(O)c(OC)c1 [Gingerol] ?
**Result** 3.75

**Query** I am curious: what Total No. of dead insect at 48 Hrs. value has been reported for C=C(C)[C@H]1CC=C(C)CC1 [D-limonene] ?
**Result** 3.75

----------
- Tested on: chili seedlings
- protocol.text: Response of chili plants, greenhouse growth (Ex. 31)
- Type: in vivo
- cond: chili seedlings; dose 1 ml/gm/lit; 10th day
Known Plant Height % Increase over pre on 10th Day of a selection of compounds
Express the result in % but write the number alone.

C=CCc1ccc(OC)cc1 : 44.42
CCCCCCCCCC(C)=O : 68.11

Turning now to a further record.
**Query** Item: CC1=CCC2CC1C2(C)C (stereo not drawn) Test system: chili seedlings Read-out: Plant Height % Increase over pre on 10th Day Value: ?
**Result** 51.74

----------
- Test system: tomato seedlings
- protocol.text: Response of tomato plants, greenhouse growth (Ex. 30)
- Assay type: in vivo
- cond: tomato seedlings; dose 1 ml/gm/lit; 5th day after application
readout.kind: CCI 5th Day
Give the value as a plain number.

**Query** I am curious: what CCI 5th Day value has been reported for CCCCCCCCCC(C)=O [Embodiment 2-undecanone, 2-undecanone] ?
**Result** 13.42

**Query** I am curious: what CCI 5th Day value has been reported for COc1cc(CNC(=O)CCCC/C=C/C(C)C)ccc1O [Capsaicin] ?
**Result** 14.66

**Query** I am curious: what CCI 5th Day value has been reported for CC1=CCC2CC1C2(C)C (stereo not drawn) [Alpha-pinene] ?
**Result** 13.65

**Query** I am curious: what CCI 5th Day value has been reported for Cc1ccc(C(C)C)c(O)c1 [Thymol] ?
**Result** 14.12

----------
- System: Helicoverpa armigera
- cond: Helicoverpa armigera on okra fruits; dose 1 ml/gm/lit.; 72 Hrs.
readout.kind: % Mortality at 72 Hrs. (%)
Express the result in % but write the number alone.

Worked cases, answers included:
O=c1oc2c(O)c(O)cc3c(=O)oc4c(O)c(O)cc1c4c23 : 72.50
CC1CCC(C(C)C)C(O)C1 (stereo not drawn) : 60.00

**Query** I am curious: what % Mortality at 72 Hrs. value has been reported for C=C1C2CCC(C2)C1(C)C (stereo not drawn) ?
**Result** 62.50

**Query** I am curious: what % Mortality at 72 Hrs. value has been reported for CC12CCC(CC1=O)C2(C)C (stereo not drawn) ?
**Result** 60.00

**Query** I am curious: what % Mortality at 72 Hrs. value has been reported for CCCCC[C@H](O)CC(=O)CCc1ccc(O)c(OC)c1 ?
**Result** 52.50

**Query** I am curious: what % Mortality at 72 Hrs. value has been reported for C=CCc1ccc(OC)cc1 ?
**Result** 62.50

----------
- System: Mite
- cond: Dose 1 ml/gm/lit.; 10 insects/treatment, 4 replications; okra leaves
Each entry gets rule not met if its Total No. of dead insect at 48 Hrs. stays under 4, and rule met if its Total No. of dead insect at 48 Hrs. is 4 or above.

Below, 3 molecules whose answers are already recorded.
Cc1ccc(C(C)C)cc1O : rule met
Cc1ccc(C(C)C)c(O)c1 : rule met
CC12CCC(CC1=O)C2(C)C (stereo not shown) : rule met

**Query** Could you tell me if the measured Total No. of dead insect at 48 Hrs. of CC1=CC(=O)C(C(C)C)=CC1=O reaches 4 or more?
**Result** rule not met

**Query** Could you tell me if the measured Total No. of dead insect at 48 Hrs. of C/C=C\c1cc(OC)c(OC)cc1OC reaches 4 or more?
**Result** rule not met

**Query** Could you tell me if the measured Total No. of dead insect at 48 Hrs. of O=C(/C=C/C=C/c1ccc2c(c1)OCO2)N1CCCCC1 reaches 4 or more?
**Result** rule met

**Query** Could you tell me if the measured Total No. of dead insect at 48 Hrs. of CCCCCCCCCCCCCCCC(=O)O reaches 4 or more?
**Result** rule met

**Query** Could you tell me if the measured Total No. of dead insect at 48 Hrs. of CC12CCC(CC1)C(C)(C)O2 reaches 4 or more?
**Result** rule not met

----------
- System: Aphid
- cond: Dose 1 ml/gm/lit.; 48 hrs
Each entry gets FALSE if its % Corrected Mortality at 48 Hrs. stays under 60%, and TRUE if its % Corrected Mortality at 48 Hrs. is 60% or above.

Below, 9 compounds whose answers are already recorded.
CCCCCCCCCCCCCCCC(=O)O : FALSE
C=CCc1ccc(OC)c(O)c1 : FALSE
CC1=CCC2CC1C2(C)C (stereo not drawn) : FALSE
C/C=C\c1cc(OC)c(OC)cc1OC : TRUE
CCCCCCCCCC(C)=O : TRUE
CC1CCC(C(C)C)C(O)C1 (stereo not drawn) : TRUE
CC12CCC(CC1=O)C2(C)C (stereo not drawn) : FALSE
CCCCC[C@H](O)CC(=O)CCc1ccc(O)c(OC)c1 : FALSE
C=C(C)[C@H]1CC=C(C)CC1 : FALSE

Now for a further compound.
**Query** Could you tell me if the measured % Corrected Mortality at 48 Hrs. of CC1=CC(=O)C(C(C)C)=CC1=O reaches 60% or more?
**Result** FALSE

----------
Known Root Lenght % Increase over control of a selection of molecules
- Tested on: chili seedlings
- protocol.text: Response of chili plants, greenhouse growth (Ex. 31)
- Type: in vivo
- cond: 240 h
Express the result in % but write the number alone.

C=CCc1ccc(O)c(OC)c1 [Eugenol] : 52.07
CCCCC[C@H](O)CC(=O)CCc1ccc(O)c(OC)c1 [Gingerol] : 37.61
CC(C)c1ccc(C=O)cc1 [Cuminaldehyde] : 13.94
C=C(C)[C@H]1CC=C(C)CC1 [D-limonene] : 61.51
CC(C)=CCCC(C)=CC=O [Citral] : 14.22
C=C1C2CCC(C2)C1(C)C (stereo not shown) [Camphene, camphene] : 27.80

Turning now to a further record.
**Query** I am curious: what Root Lenght % Increase over control value has been reported for Cc1ccc(C(C)C)cc1 [p-Cymene] ?
**Result** 15.10

----------
- Tested on: chili seedlings
- protocol.text: Response of chili plants, greenhouse growth (Ex. 31)
- Assay type: in vivo
- cond: chili seedlings; dose 1 ml/gm/lit; 10th day
readout.kind: Root Lenght (cm) 10th Day
In your response, put the unit directly after the numeric value.

Worked cases, answers included:
C=C1C2CCC(C2)C1(C)C (stereo not drawn) [Camphene, camphene] : 3.50 cm
Cc1ccc(C(C)C)c(O)c1 [Thymol] : 3.77 cm
C=C(C)[C@H]1CC=C(C)CC1 [D-limonene] : 4.42 cm
C=CCc1ccc(OC)c(O)c1 [Chavibetol] : 3.60 cm

**Query** I am curious: what Root Lenght (cm) 10th Day value has been reported for O=C(/C=C/C=C/c1ccc2c(c1)OCO2)N1CCCCC1 [Piperine] ?
**Result** 3.25 cm

**Query** I am curious: what Root Lenght (cm) 10th Day value has been reported for Cc1ccc(C(C)C)cc1O [Carvacrol] ?
**Result** 3.97 cm

**Query** I am curious: what Root Lenght (cm) 10th Day value has been reported for CC12CCC(CC1)C(C)(C)O2 [1,8 cineole] ?
**Result** 3.26 cm

**Query** I am curious: what Root Lenght (cm) 10th Day value has been reported for CC1=CCC2CC1C2(C)C (stereo not drawn) [Alpha-pinene] ?
**Result** 3.23 cm

**Query** I am curious: what Root Lenght (cm) 10th Day value has been reported for C/C=C\c1cc(OC)c(OC)cc1OC [β-Asarone] ?
**Result** 3.17 cm

----------
- System: tomato seedlings
- protocol.text: Response of tomato plants, greenhouse growth (Ex. 30)
- Type: in vivo
- cond: tomato seedlings; 5th day after application; dose 1 ml/gm/lit
readout.kind: Stem Girth 5th Day (mm)
Express the result in mm but write the number alone.

CC1=CC(=O)C(C(C)C)=CC1=O : 1.68

**Query** I am curious: what Stem Girth 5th Day value has been reported for CC(C)c1ccc(C=O)cc1 ?
**Result** 1.77

**Query** I am curious: what Stem Girth 5th Day value has been reported for CCCCCCCCCCCCCCCC(=O)O ?
**Result** 1.79

**Query** I am curious: what Stem Girth 5th Day value has been reported for CCCCCCCCCC(C)=O ?
**Result** 1.61

**Query** I am curious: what Stem Girth 5th Day value has been reported for CC12CCC(CC1=O)C2(C)C (stereo not shown) ?
**Result** 1.90

**Query** I am curious: what Stem Girth 5th Day value has been reported for O=c1oc2c(O)c(O)cc3c(=O)oc4c(O)c(O)cc1c4c23 ?
**Result** 1.54

These data points were gathered from patent US20250351832A1.
